Target: JAK1 (Homo sapiens (Human), UniProt P23458)
Sequence (P23458 875-1153): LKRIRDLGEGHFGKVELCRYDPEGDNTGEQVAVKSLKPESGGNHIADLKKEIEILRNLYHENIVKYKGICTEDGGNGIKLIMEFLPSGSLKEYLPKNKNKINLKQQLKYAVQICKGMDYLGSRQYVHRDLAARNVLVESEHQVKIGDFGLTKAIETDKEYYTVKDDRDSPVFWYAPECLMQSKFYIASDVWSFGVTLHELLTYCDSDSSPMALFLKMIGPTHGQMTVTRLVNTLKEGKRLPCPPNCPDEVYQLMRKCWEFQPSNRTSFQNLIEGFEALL
Test: Jak Biochemical HTRF Assay, JAK1
Details: HTRF biochemical assay, GST-tagged catalytic domain; top concentration tested […]; read-out: JAK1 IC50
Excerpt: Jak Biochemical HTRF Assay Protocol Subsequent reagent additions employed an Agilent Bravo.
Recorded metric: pIC50
Numbers only, as −log10 of the molar value.

Worked set:
Prompt: Quick one: pIC50 for N#CCC1(n2cc(C(N)=O)c(Nc3ccnc(F)c3)n2)CCC(NCc2ccc(C#N)cc2)CC1 (stereo not shown) [Example 41-6] ?
Response: 7.64

Prompt: Value lookup for pIC50; key = N#CCC1(n2cc(C(N)=O)c(Nc3ccc(F)cc3)n2)CCC(N2Cc3ccccc3C2)CC1 (stereo not shown) [Example 40-90]
Response: 8.05

Prompt: Returns the measured pIC50 for the input compound. Input: N#CCC1(n2cc(C(N)=O)c(Nc3ccnc(F)c3)n2)CCC(NCc2ccncc2)CC1 (stereo not shown) [Example 41-13]
Response: 7.07

Prompt: May I ask what pIC50 has been recorded for N#CCC1(n2cc(C(N)=O)c(Nc3ccccc3)n2)CN(C(=O)OCc2ccccc2)C1 [Example 30-53] ?
Response: 7.96

Prompt: What measured pIC50 goes with N#CCC1(n2cc(C(N)=O)c(Nc3ccccc3)n2)CCN(CC2CCCCC2)CC1 [Example 21-9] ?
Response: 7.82

Prompt: Given the compound Cc1ncncc1N1CCC(CC#N)(n2cc(C(N)=O)c(Nc3ccc(F)cc3)n2)CC1 [Example 3-47] , what is its reported pIC50?
Response: 7.89

State recorded pIC50 for all listed compounds.
1. N#CCC1(n2cc(C(N)=O)c(Nc3ccc(F)cc3)n2)CCN(c2cncc3ccccc23)CC1 [Example 3-2]
2. N#CCC1(n2cc(C(N)=O)c(Nc3ccnc(F)c3)n2)CCC(NCC(F)(F)F)CC1 (stereo not shown) [Example 40-93]
3. N#CCC1(n2cc(C(N)=O)c(Nc3ccccc3)n2)CN(C(=O)OC2CCCC2)C1 [Example 30-52]

Response:
[8.22, 6.78, 8.52]

Could I get pIC50 for every one of these entries?
1. COc1ccc(CN2CCC(CC#N)(n3cc(C(N)=O)c(Nc4ccnc(F)c4)n3)CC2)cc1 [Example 22-65]
2. CN(C)CC(=O)N1CCC(CC#N)(n2cc(C(N)=O)c(Nc3ccccc3)n2)CC1 [Example 34-5]
3. N#CCC1(n2cc(C(N)=O)c(Nc3ccccc3)n2)CN(S(=O)(=O)c2ccccc2)C1 [Example 37-19]

Response:
1. 9.00
2. 7.89
3. 6.86

Provide pIC50 for all items below, preserving their order.
1. N#CCC1(n2cc(C(N)=O)c(Nc3ccccc3)n2)CCN(C(=O)c2ccc3ccccc3n2)CC1 [Example 34-32]
2. N#CCC1(n2cc(C(N)=O)c(Nc3ccnc(F)c3)n2)CCN(Cc2ccccc2F)CC1 [Example 22-9]
3. CC(C)(C)OC(=O)N1CCC(CC#N)(n2cc(C(N)=O)c(Nc3ccc(C#N)cc3)n2)CC1 [Example 9-5]
4. COc1ccccc1CN1CCC(CC#N)(n2cc(C(N)=O)c(Nc3ccnc(F)c3)n2)CC1 [Example 22-66]
5. N#CCC1(n2cc(C(N)=O)c(Nc3ccc(F)cc3)n2)CCN(c2cccc(C#N)n2)CC1 [Example 3-18]
6. CN(c1ccccc1)C1CCC(CC#N)(n2cc(C(N)=O)c(Nc3ccnc(F)c3)n2)CC1 (stereo not shown) [Example 40-34]
7. CCS(=O)(=O)N1CC(CC#N)(n2cc(C(N)=O)c(Nc3ccc(C(=O)N4CCS(=O)(=O)CC4)cc3)n2)C1 [Example 2-13]
8. CS(=O)(=O)N1CC(CC#N)(n2cc(C(N)=O)c(Nc3ccccc3)n2)C1 [Example 37-16]

Response:
1: 8.22; 2: 10.22; 3: 9.70; 4: 8.70; 5: 8.52; 6: 8.40; 7: 7.57; 8: 7.10

Dear colleague, could you send me pIC50 for each of the items below? Thanks.
1. COCC(C)(C)OC(=O)N1CCC(CC#N)(n2cc(C(N)=O)c(Nc3ccc(F)cc3)n2)CC1 [Example 28]
2. N#CCC1(n2cc(C(N)=O)c(Nc3ccccc3)n2)CCN(C(=O)c2ccsc2)CC1 [Example 34-16]
3. Cc1ccc(NC(=O)N2CC(CC#N)(n3cc(C(N)=O)c(Nc4ccccc4)n3)C2)cc1F [Example 38-37]

Response:
[8.40, 8.70, 8.10]
